- Tested on: HCT-116 colon
- assay_protocol: NCI tumour cell line growth inhibition, 48 h
Reported TGI values for a set of compounds
observable: TGI (µM)

>>> numeric_result("CC(=O)O.[Au].c1ccc([PH+](c2ccccc2)c2ccccc2)cc1")
3.2
>>> numeric_result("COc1cc2c3c(n(CCCCOC(=O)C(Cl)(Cl)Cl)c(=O)c2cc1OC)-c1cc2c(cc1C3=O)OCO2")
34.2
>>> numeric_result("CC(C)(C)[Si](C)(C)OCC1OC(n2cc(I)c(N)nc2=O)C(O[Si](C)(C)C(C)(C)C)C1O[Si](C)(C)C(C)(C)C (configuration not stated)")
24
>>> numeric_result("C/C=C(/C)C(=O)O[C@H]1C[C@@H]2[C@@H](O)c3occ(C)c3C[C@]2(C)[C@@H](C)C1")
28.5
>>> numeric_result("CC[CH2][Sn]([Cl])([Cl])[CH2]CC.Oc1ccccc1C=NCCN=Cc1ccccc1O")
16.3

###

Measured TGI, listed per entry for reference.
- Test system: UACC-62 melanoma
- assay_protocol: NCI tumour cell line growth inhibition, 48 h
observable: TGI

>>> result("CC1=CC(=O)N(n2c(Cc3ccccc3)n[nH]c2=O)C1=O")
"> 100 µM"
>>> result("COc1cc2c(cc1OC)CCc1cc(OC)c(OC)cc1CC2")
"> 100 µM"
>>> result("COc1cc(/C=C2\\CN(C)CC3=C2NC(=S)NC3c2cc(OC)c(OC)c(OC)c2)cc(OC)c1OC (stereo not drawn)")
"> 100 µM"
>>> result("CSc1nc2cc(S(=O)(=O)N3CCCCC3)ccc2s1")
"> 100 µM"
>>> result("CC(C)c1cc2c(O)c(c1)Cc1cc(C(C)C)cc(c1O)Cc1cc(C(C)C)cc(c1O)Cc1cc(C(C)C)cc(c1O)C2")
"> 100 µM"
>>> result("CC1=N/C(=C\\c2cccc([N+](=O)[O-])c2)C(=O)O1")
"> 100 µM"
>>> result("O=C(N/N=C\\c1cccc(O)c1)c1ccncc1")
"> 100 µM"
>>> result("CCN(CC)CCCC(C)Nc1cnc(C(=O)Nc2cccc3ccc(OC)nc23)cn1 (stereo not drawn)")
"3.21 µM"
>>> result("N#C/C(N)=C(\\C#N)N=CN")
"> 100 µM"
>>> result("C=C1C(=O)O[C@H]2[C@H]1CC/C(COC(=O)c1cc3ccccc3s1)=C\\CC[C@@]1(C)O[C@@H]21")
"3.79 µM"
>>> result("COC(=O)C(COC(C)=O)NC(=O)/C=C/c1ccc(O)c(OC(C)=O)c1 (stereo not drawn)")
"> 100 µM"
>>> result("O=c1[nH]nc(Cc2ccccc2)[nH]1")
"> 100 µM"
>>> result("CC(C)(C)c1ccc(-c2nc3ccc(Cl)cc3c(=O)o2)cc1")
"56.5 µM"
>>> result("C=C1CC[C@@H]2[C@](C)(COC(C)=O)[C@H](OC(C)=O)CC[C@@]2(C)[C@@H]1CC(Nc1ccc(S(=O)(=O)Nc2ncccn2)cc1)C1=CCOC1=O (stereo partly drawn)")
"2.56 µM"
>>> result("CC(=O)O.[Au].c1ccc([PH+](c2ccccc2)c2ccccc2)cc1")
"4.03 µM"
>>> result("CN(C)C(c1ccccc1)C(O)c1ccccc1 (stereo not drawn)")
"> 100 µM"
>>> result("CC(C)Oc1ccc2c(c1)OCC1Cc3ccccc3OC21 (stereo not drawn)")
"> 100 µM"
>>> result("CC(=O)OC1(C)C=CC(=O)C=C1")
"35.7 µM"

###

- Tested on: MDA-MB-435
- assay_protocol: NCI tumour cell line growth inhibition, 48 h
observable: TGI

>>> result("CNC(=O)N1CN(c2ccccc2)C2(CCN(CCCC3(c4ccc(F)cc4)OCCO3)CC2)C1=O")
"> 100 µM"
>>> result("COc1ccc(N2C(=O)c3cc(C)cnc3S2(=O)=O)cc1")
"> 100 µM"
>>> result("Cc1ccc(NC(=S)N/N=C(/c2ccccc2)c2ccccn2)cc1")
"14.7 µM"
>>> result("COc1ccc(-n2cc(-c3cc(OC)c(OC)c(OC)c3)[nH]c2=O)cc1Cl")
"> 100 µM"
>>> result("C=C(C)C1CCC2(C(=O)O)CCC3(C)C(CCC4C5(C)CCC(OC(=O)NCc6ccccc6)C(C)(C)C5CCC43C)C12 (centres undefined)")
"> 100 µM"
>>> result("CC1=CC(=O)N(n2c(Cc3ccccc3)n[nH]c2=O)C1=O")
"> 100 µM"
>>> result("c1cc2c(ncc3cscc32)s1")
"> 100 µM"
>>> result("CC12CCC([C@H](C(O)C3CCCCC3)C1=O)C2(C)C (some centres undefined)")
"> 100 µM"
>>> result("COC(=O)C(NC(=O)c1ccccc1)c1ccco1 (centres undefined)")
"> 100 µM"
>>> result("O=C1NN(C2=NNC3(C(=O)N2)c2ccccc2-c2ccccc23)C(c2ccccc2)=N/C1=C/c1ccc(O)cc1")
"> 150 µg/mL"
>>> result("COc1cc(/C=C2\\N=C(c3ccccc3)N(c3nc4c(OC)ccc(OC)c4s3)C2=O)ccc1O")
"50.7 µM"
>>> result("CC(=NNC(=S)Nc1ccc(C)cc1)c1cccc(C(C)=NNC(=S)Nc2ccc(C)cc2)n1")
"> 100 µM"
>>> result("COC(=O)C12C3C4C1C1C2C3C41NC(=O)c1csc([C@@H](C[C@H](C(C)C)N(C)C(=O)[C@@H](NC(=O)[C@H]2CCCCN2C)C2CC2)OC(C)=O)n1 (some centres undefined)")
"0.00992 µM"
>>> result("Cc1nc(-c2ccccc2)c(-c2ccccc2)s1")
"69.1 µM"
>>> result("CCNc1cc2c(cc1O)CC[C@@H]1[C@@H]2CC[C@]2(C)[C@@H](O)CC[C@@H]12")
"0.712 µM"
>>> result("CC(C)Oc1ccc2c(c1)OCC1Cc3ccccc3OC21 (centres undefined)")
"> 100 µM"
>>> result("Cc1cc(=O)n2nc(CN3CCCCC3)sc2n1")
"> 100 µM"
>>> result("NC(=S)Nc1ccc(S(=O)(=O)Nc2ccc(S(N)(=O)=O)cc2)cc1")
"> 100 µM"
>>> result("CC(C)(C)c1ccc(-c2nc3ccc(Cl)cc3c(=O)o2)cc1")
"56.5 µM"

###

- Test system: A549 NSCLC
- assay_protocol: NCI tumour cell line growth inhibition, 48 h
# maps each entry to its TGI
observable: TGI

>>> result("CCOP(=O)(CN1CCNCCNCC1)OCC")
"> 100 µM"
>>> result("O=c1[nH]nc(Cc2ccccc2)[nH]1")
"> 100 µM"
>>> result("Cc1nc2ccccc2n1C(=O)c1c(F)c(F)c(F)c(F)c1F")
"> 100 µM"
>>> result("COc1ccc(-c2cc(=O)c3ccccc3[nH]2)c(OC)c1")
"> 100 µM"
>>> result("C/C=C1/C(=C/c2[nH]c(/C=c3\\[nH]/c(=C/C4=NC(=O)C(CC)=C4C)c(C)c3CCC(=O)O)c(CCC(=O)O)c2C)NC(=O)C1C (stereo not given)")
"> 150 µg/mL"
>>> result("COc1cc2c(c(OC)c1OC)-c1c(cc3c(c1OC)OCO3)C1OC2C(C)C1C (stereo not given) (tested in a mixture with another compound)")
"> 100 µM"
>>> result("O=c1[nH]c(=O)n(C2OC(CO)C(O)C(O)C2O)cc1F (stereo not given)")
"> 100 µM"
>>> result("CCc1ccc(Nc2ccc([N+](=O)[O-])cc2[N+](=O)[O-])cc1")
"> 100 µM"
>>> result("CCCCCN(CCCCC)CC(O)c1ccc(Cl)c2ccccc12 (stereo not given)")
"34 µM"
>>> result("O=C(O)Cc1cc(O)c(CC(=O)O)cc1O")
"> 100 µM"

###

Reported TGI values follow for various compounds
- Tested on: TK-10 renal
- assay_protocol: NCI tumour cell line growth inhibition, 48 h
observable: TGI

>>> result("Cc1ccc(-c2c3nc(c(-c4ccc(C)cc4)c4ccc([nH]4)c(-c4ccc(OCC5COC(C)(C)O5)cc4)c4nc(c(-c5ccc(C)cc5)c5ccc2[nH]5)C=C4)C=C3)cc1 (stereo not drawn)")
"> 31.6 µM"
>>> result("Cc1cc(C)n(C2OC(CO)C(O)C(O)C2O)c(=S)c1C#N (stereo not drawn)")
"> 100 µM"
>>> result("CC(C)c1cc2c(O)c(c1)Cc1cc(C(C)C)cc(c1O)Cc1cc(C(C)C)cc(c1O)Cc1cc(C(C)C)cc(c1O)C2")
"> 100 µM"

###

- Test system: COLO 205 colon
- assay_protocol: NCI tumour cell line growth inhibition, 48 h
// TGI lookup, one value per entry
observable: TGI

>>> result("COc1ccccc1Cn1cc2c(c1-c1ccccc1)CCc1cnoc1-2")
"7.62 µM"
>>> result("COc1cc(NS(=O)(=O)c2ccc(-c3cnc(C4CC4)o3)cc2)ccc1F")
"9.57 µM"
>>> result("COc1ccc(O)c(/C(C)=N/NC(=S)N(C)C)c1")
"> 100 µM"
>>> result("COc1ccc(C2SCC(=O)N2NC(=O)Nc2c(C)nc3ccccn23)cc1 (stereo unspecified)")
"> 100 µM"
>>> result("C/C=C1/C(=C/c2[nH]c(/C=c3\\[nH]/c(=C/C4=NC(=O)C(CC)=C4C)c(C)c3CCC(=O)O)c(CCC(=O)O)c2C)NC(=O)C1C (stereo unspecified)")
"> 150 mg/L"
>>> result("COc1ccc(N2C(=O)c3cc(C)cnc3S2(=O)=O)cc1")
"> 100 µM"

From: PubChem BioAssay (NCI)
